Molecular target: T1, Ac-DAEFRHDSGYEVHHQKGGGGC-NH2, immobilized peptide fragment corresponding to the 1-16 region of the amyloid-β … (N-terminal acetyl (Ac); C-terminal amide (NH2); C-terminal cysteine bound to the CM5 chip through a thiol bond)
T1 construct: Synthetic 21-mer; Aβ 1-16 plus GGGG linker and Cys for immobilisation; also called ligand; target ligand
T1 peptide: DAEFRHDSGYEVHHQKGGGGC
Assay: SPR, BIACORE T100, ligand immobilised on CM5 chip, peptide as analyte 50-2,000 µM, no zinc, kinetic fit
Kd strictly less than 3000 µM = 1. Otherwise 0.

# example entries with known answers
| binder | category label |
| --- | --- |
| Ac-DDAK-NH2 (also called ID; NO) [Ac-DDAK-NH2] | 1 |
| Ac-KADE-NH2 (also called ID; NO; 15) [Ac-KADE-NH2] | 0 |
| Ac-DEAR-NH2 (also called ID; NO; 12) [Ac-DEAR-NH2] | 1 |
| Ac-RADD-NH2 (also called ID; NO) [Ac-RADD-NH2] | 1 |
| Ac-RAEE-NH2 (also called ID; NO; 23) [Ac-RAEE-NH2] | 0 |

Request: Here's an entry: Ac-HAEE-NH2 (also called ID; NO; 19) [Ac-HAEE-NH2] . Is its Kd below 3000 µM?
Result: 1

Request: # iterate: Ac-HADD-NH2 (also called ID; NO) [Ac-HADD-NH2]
Result: 0

Request: # iterate: Ac-KAED-NH2 (also called ID; NO) [Ac-KAED-NH2]
Result: 0

This collection of values is drawn from patent US20130252901A1.
